Exercise: for every item that follows, state its recorded TGI.
Tested on: LOX IMVI melanoma
RUN_DESCRIPTION: NCI tumour cell line growth inhibition, 48 h

Task: Which TGI value belongs to C[C@@]1(O)CC[C@]2(C)C3CCCC3[C@H]12 (some centres undefined) ?
Result: > 100 µM

Task: Next record, please: CC1(C)CC(c2c[nH]c3ccccc23)=CC2=Nc3ccccc3C21O (centres undefined)
Result: > 100 µM

Task: Next record, please: CC(=O)OC1(C)N=NC2(CCCCC2)O1 (centres undefined)
Result: > 100 µM

Task: Next record, please: NC(=S)N/N=C\c1nccc2c(C(F)(F)F)cccc12
Result: 10.8 µM

Task: Next record, please: O=C(Nc1nn2c(-c3cc(C(F)(F)F)cc(C(F)(F)F)c3)nnc2s1)C1CCCC1
Result: > 100 µM

Task: Next record, please: CCOC(=O)CCC(NC(=O)C(N)Cc1ccc(N(CCCl)CCCl)cc1)C(=O)OCC (centres undefined)
Result: 1.63 µM

Task: Next record, please: CC(C)(C)[Si](C)(C)OC1[C@@H](O[Si](C)(C)C(C)(C)C)[C@@H](CNC(=O)NC(=O)C(F)(F)F)O[C@H]1n1cnc2c(NC(=O)Nc3ccccc3)ncnc21 (some centres undefined)
Result: 12.3 µM

Task: Next record, please: COc1ccc2oc3c(C)cc4c(OC)nnc(OC)c4c3c2c1
Result: > 100 µM

Task: Next record, please: OC(c1cc(C(F)(F)F)nc2c(C(F)(F)F)cccc12)C1CCCCN1 (centres undefined)
Result: 3.15 µM

Task: Next record, please: Cc1nc(-c2nc(C)c(C(=O)NNC(=O)C[n+]3ccccc3)s2)sc1C(=O)NNC(=O)C[n+]1ccccc1
Result: > 100 µM

Task: Next record, please: CN(C)C=Nc1nc(=O)n(C2CCC(CO)O2)cc1F (centres undefined)
Result: > 100 µM

Task: Next record, please: Br[Se]c1ccccn1
Result: 33 µM

Task: Next record, please: O=C(NC1C=CCC2C(=O)N(c3ccccc3)C(=O)C12)OCc1ccccc1 (centres undefined)
Result: > 100 µM

Task: Next record, please: NC(=S)N/N=C1\c2cc(Cl)ccc2-c2c1cc(Cl)cc2[N+](=O)[O-]
Result: > 100 µM

Task: Next record, please: CC[C@@H](c1ccc(O)c(O)c1)[C@@H](CC)c1ccc(O)c(O)c1
Result: 9.91 µM

Task: Next record, please: Cc1ccc(C(=O)OC(C(=O)O)C(OC(=O)c2ccc(C)cc2)C(=O)O)cc1 (centres undefined) (tested in a mixture with another compound)
Result: 20.6 µM

Task: Next record, please: CC(N)/C(N)=N/O (centres undefined)
Result: > 100 µM

Task: Next record, please: Cc1nn(C(=O)Cc2ccccc2)c2c1C(c1ccccc1)SC(N)=N2 (centres undefined)
Result: > 100 µM

Task: Next record, please: CC(=O)CC1CCC(=O)/C=C/C(=O)OC(CC(C)=O)CCC(=O)/C=C/C(=O)O1 (centres undefined)
Result: 35.1 µM

###

Test system: SK-MEL-2 melanoma
RUN_DESCRIPTION: NCI tumour cell line growth inhibition, 48 h
TEST_READOUT: TGI

Task: Which TGI value belongs to O=C1c2sc(-c3ccc(Cl)cc3)cc2-n2cccc21 ?
Result: > 100 µM

Task: Next record, please: C=C1c2nc3ccccc3n2C=C(c2ccc(OC)cc2)N1c1ccc(OC)cc1
Result: > 100 µM

Task: Next record, please: CC(=O)OCCOCNC(=S)N/N=C/c1ccc([N+](=O)[O-])o1
Result: > 100 µM
